Target: CD16a-V158 (FcgRIIIa-V158) (Homo sapiens, UniProt P08637, F176V)
Sequence (P08637 17-208 F176V limits assumed): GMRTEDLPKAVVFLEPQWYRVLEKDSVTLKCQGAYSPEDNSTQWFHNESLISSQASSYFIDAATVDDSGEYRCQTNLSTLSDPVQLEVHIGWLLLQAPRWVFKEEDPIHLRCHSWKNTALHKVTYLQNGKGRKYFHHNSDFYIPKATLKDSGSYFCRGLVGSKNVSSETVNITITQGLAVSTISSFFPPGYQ
Test: SPR binding to FcgR-his: CD16a-V158
Details: 1 μM antibody, anti-his Fab captured FcgR-his
Measurement Kind: % Rmax, binding to hCD16a-V158 (%)
Only the number, expressed in %, is required.

Query: Consider the molecule shown here: mAb4-IgG2.5 (protein, left off: another chain or arm of the molecule) constant: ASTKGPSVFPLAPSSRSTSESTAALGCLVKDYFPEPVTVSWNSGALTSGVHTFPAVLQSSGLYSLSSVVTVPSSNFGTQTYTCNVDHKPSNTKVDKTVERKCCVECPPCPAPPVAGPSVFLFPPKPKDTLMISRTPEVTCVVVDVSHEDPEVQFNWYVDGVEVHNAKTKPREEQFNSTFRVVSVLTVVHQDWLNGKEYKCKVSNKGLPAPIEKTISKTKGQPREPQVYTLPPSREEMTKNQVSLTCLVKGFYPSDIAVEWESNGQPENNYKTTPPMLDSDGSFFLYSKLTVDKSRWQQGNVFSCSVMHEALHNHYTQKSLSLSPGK What is its recorded % Rmax, binding to hCD16a-V158?
Response: 1

Now look at this one.
Query: Consider the molecule shown here: mAb6-IgG2.5 (protein, left off: another chain or arm of the molecule) constant: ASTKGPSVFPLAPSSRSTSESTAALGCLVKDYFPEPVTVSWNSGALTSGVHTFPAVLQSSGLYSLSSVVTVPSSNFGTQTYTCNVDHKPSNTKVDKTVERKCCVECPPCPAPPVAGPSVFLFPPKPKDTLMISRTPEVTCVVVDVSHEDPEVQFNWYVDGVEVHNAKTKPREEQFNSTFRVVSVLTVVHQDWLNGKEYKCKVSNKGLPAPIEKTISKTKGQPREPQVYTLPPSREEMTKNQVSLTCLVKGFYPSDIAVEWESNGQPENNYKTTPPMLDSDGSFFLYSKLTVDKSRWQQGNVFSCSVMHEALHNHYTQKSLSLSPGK What is its recorded % Rmax, binding to hCD16a-V158?
Response: 2
